Hello, the source for this data is ChEMBL document CHEMBL3045229, in case you need it.

test system: Theba pisana; assay: Fumigant molluscicidal activity against Theba pisana (white garden snail) assessed as snail mortality after 24 hr; type: functional
metric_name: LC50 (µg/mL)

INSERT INTO measurements (compound, operator_symbol, experimental_value) VALUES
  ('CC12CCC(CC1=O)C2(C)C (stereo not given)', '=', 7.98),
  ('CC1CCC(C(C)C)C(O)C1 (stereo not given)', '>', 100),
  ('CC1(C)C(=O)[C@@]2(C)CC[C@H]1C2', '=', 2.51),
  ('CC(C)c1ccc(C=O)cc1', '>', 100),
  ('C=C(C)[C@@H]1CC=C(C)C(=O)C1', '=', 27),
  ('C=C(C)[C@@H]1CC=C(C)CC1 [(-)-LIMONENE]', '=', 8.39),
  ('C=CC(=C)CCC=C(C)C', '=', 3.88),
  ('C=C1C2CCC(C2)C1(C)C (stereo not given)', '=', 33.5),
  ('CC(C)=CCC/C(C)=C/CO', '>', 100),
  ('CC12CCC(CC1)C(C)(C)O2', '=', 4.17);

====

tested on: Theba pisana; test: Contact molluscicidal activity against Theba pisana (white garden snail ) exposed to compound throgh application to surface of snail body inside shell assessed as compound level per snail causing snail mortality after 24 hr; assay type: functional
metric_name: LD50 (µg)

INSERT INTO assay_data (compound, metric_name, operator_symbol, experimental_value) VALUES
  ('CC12CCC(CC1)C(C)(C)O2', 'LD50', '=', 223.44),
  ('C=C1C2CCC(C2)C1(C)C (stereo unspecified)', 'LD50', '>', 1000),
  ('C=CC(=C)CCC=C(C)C', 'LD50', '>', 1000),
  ('C=C(C)[C@@H]1CC=C(C)C(=O)C1', 'LD50', '=', 132.18),
  ('CC1CCC(C(C)C)C(O)C1 (stereo unspecified)', 'LD50', '=', 99.44),
  ('CC12CCC(CC1=O)C2(C)C (stereo unspecified)', 'LD50', '=', 89.15),
  ('CNC(=O)Oc1cc(C)c(SC)c(C)c1', 'LD50', '=', 188.68),
  ('C=C(C)[C@@H]1CC=C(C)CC1 [(-)-LIMONENE]', 'LD50', '=', 60.27),
  ('CC1(C)C(=O)[C@@]2(C)CC[C@H]1C2', 'LD50', '=', 135.36),
  ('CC(C)=CCC/C(C)=C/CO', 'LD50', '=', 42.29),
  ('CC(C)c1ccc(C=O)cc1', 'LD50', '=', 28.37);
